# Target entity: T1, MHC class I molecule A*0201 (biotin (bound via biotin to streptavidin-coated plates))
# T1 construct: also called A2; HLA-A2
# Run description: iTopia affinity assay (ED50), peptide titration on plate-bound MHC
pEC50: −log10 of the molar value.
Returns one of MET or NOT MET; MET when pEC50 is >= 5.

SSAPFLASA [5T4 9 mer peptide 22 (SSAPFLASA)]: MET

(Q) Confirm if pEC50 reported for the binder RLRLARLAL [5T4 9 mer peptide 8 (RLRLARLAL)] is 5 or above.
(A) MET

(Q) Confirm if pEC50 reported for the binder ILNHIVPPE [5T4 9 mer peptide 90 (ILNHIVPPE)] is 5 or above.
(A) MET

(Q) Confirm if pEC50 reported for the binder AFSGSNASV [5T4 9 mer peptide 81 (AFSGSNASV)] is 5 or above.
(A) MET

(Q) Confirm if pEC50 reported for the binder GAFARRPPL [5T4 9 mer peptide 55 (GAFARRPPL)] is 5 or above.
(A) MET

(Q) Confirm if pEC50 reported for the binder LASNHFLYL [5T4 9 mer peptide 109 (LASNHFLYL)] is 5 or above.
(A) MET

(Q) Confirm if pEC50 reported for the binder LPSLRHLDL [5T4 9 mer peptide 117 (LPSLRHLDL)] is 5 or above.
(A) NOT MET

(Q) Confirm if pEC50 reported for the binder LDLSNNSLV [5T4 9 mer peptide 120 (LDLSNNSLV)] is 5 or above.
(A) NOT MET

(Q) Confirm if pEC50 reported for the binder PPLAELAAL [5T4 9 mer peptide 58 (PPLAELAAL)] is 5 or above.
(A) NOT MET
